# Tested on: human Hep G2 cells (ATCC HB-8065)
# ASSAY PROTOCOL: Cytotoxicity in Hep G2 cells (CellTiter-Glo)
# Assay type: cell-based
# CONDITION INFO: Hep G2 cells, 100 μM test article, 24-hour exposure
Where a name gives a salt, the structure may show the parent alone.
Hi! Could you tag entries with % Cell Viability below 60% as true, and those at or above as false? Much appreciated.

MOLECULE	LABEL
Cc1ccc(N2CCN(CC(=O)N(C)C)CC2)cc1C(=O)N[C@H](C)c1cccc(-c2cnn(C)c2)c1	false
Cc1ccc(C2CCNCC2)cc1C(=O)N[C@H](C)c1cccc2ccccc12	true
Cc1ccc(N2CCN(C)CC2)cc1C(=O)N[C@H](C)c1ccc2c(c1)OCCO2	false
COc1cc(Br)cc([C@@H](C)NC(=O)c2cc(N3CCN4CCCC4C3)ccc2C)c1 (some centres unmarked)	true
Cc1ccc(N2CCN3CCCC3C2)cc1C(=O)N[C@H](C)c1cccc2ccccc12 (some centres unmarked) [Example 125, hydrochloride salt]	true
Cc1ccc(N2CCN(C)CC2)cc1C(=O)N[C@H](C)c1cccc(F)c1	false
COc1cc(-c2cnn(C)c2)cc([C@@H](C)NC(=O)c2cc(N3CCCN(C)CC3)ccc2C)c1	true

All values here come from patent US20240383852A1.
